B1: PPP2R2C (parent)
chain: YSSSKGSLRLCDMRAAALCDKHSK

# Variants of: B1
# Experiment Notes: protein stability index of a GFP-peptide fusion (GPS, HEK-293T) (PSI 1-6); higher = more stable;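 further: lentivirally expressed fusions sorted by FACS into six bins by GFP to DsRed ratio, PSI derived from sequencing read proportions per bin multiplied by bin number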
# Measurement Context: c terminus: a fixed tail appended
Experimental Endpoint: protein stability index

# Sequence Input, protein stability index
data = [
    ("YSSSKGRLRLCDMRAAALCDKHSK [S7R]", 2.04),
]

Task item: Data request, read-out protein stability index, for YSSSKGSLRLCDMRAAALCYKHSK [D20Y]
Reply: 1.96

Task item: Data request, read-out protein stability index, for YSSSKGSLRLCDMSAAALCDKHSK [R14S]
Reply: 2.02

Task item: Data request, read-out protein stability index, for YSSSKGSLRLCDMRAAALCLKHSK [D20L]
Reply: 2.05

src = the supplement of paper PMC10567573
